# Experimental Target: human RORγt ligand binding domain (RORγt LBD) (Homo sapiens (Human), UniProt P51449)
# Sequence (P51449 other isoform, or with tags, fused parts or gaps): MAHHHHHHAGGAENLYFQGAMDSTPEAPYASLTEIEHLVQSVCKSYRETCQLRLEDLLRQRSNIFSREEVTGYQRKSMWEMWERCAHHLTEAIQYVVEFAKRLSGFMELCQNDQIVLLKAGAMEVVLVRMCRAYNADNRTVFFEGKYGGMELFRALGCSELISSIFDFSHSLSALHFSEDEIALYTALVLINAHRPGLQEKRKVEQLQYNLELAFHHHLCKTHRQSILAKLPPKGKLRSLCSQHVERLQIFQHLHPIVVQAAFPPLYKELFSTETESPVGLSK
# Assay Info: RORγt ThermoFluor® assay (thermal shift binding)
# Test Context: read-out: ThermoFluor® Assay, Kd
Value Kind: Kd (nM)

INSERT INTO measurements (line_notation, endpoint_unit, observed_value) VALUES
  ('CC[C@H](Nc1cc(C(F)F)c(-c2sc(C(=O)N[C@@H]3COC[C@H]3O)nc2C(=O)N2CCC[C@@H]2C)cn1)C(F)(F)F', 'nM', 6.1);

[P] C[C@H]1CC(F)(F)CN1C(=O)c1nc(C(=O)NCC(C)(C)O)sc1-c1cnc(NCC2(C(F)(F)F)CCC2)cc1C(F)(F)F
[Q] C[C@H]1CC(F)(F)CN1C(=O)c1nc(C(=O)NCC(C)(C)O)sc1-c1cnc(NC(C)(C)C)cc1C(F)F
[R] C[C@H](NC(=O)c1nc(C(=O)N2CCC[C@@H]2C)c(-c2cnc(N[C@H](C)C(F)(F)F)cc2C(F)F)s1)C(C)(C)O
Inquiry: Ranking field: Kd; order: falling. The reply should contain the labels ordered as requested.
Reply text: R, Q, P
(R: 5.1 nM, Q: 2.3 nM, P: 0.43 nM)
